- assay protocol: qHTS profiling of the MIPE4 collection as inhibitors of Plasmodium falciparum (DD2) proliferation (AID 743345)
- experimental conditions: P. falciparum Dd2 in erythrocytes, SYBR Green DNA, 72 h; at 28.5 µM (top of the series) unless noted
Reported parasite growth remaining, % of DMSO control (lower = more inhibition) values are given for each entry in this list.
measured attribute: parasite growth remaining, % of DMSO control (lower = more inhibition) (%)

compound: O=C(c1ccc(F)cc1)N1CCC[C@H](c2nc(-c3ccc(F)cc3)no2)C1
test value: 94.6
--
compound: Oc1ccc(-c2ccc(-c3cc(Nc4cccc(CNC5CC5)c4)n[nH]3)cc2)c(O)c1
test value: 13.4
--
compound: CCOC(=O)N1CCN([N+]([O-])=NOc2ccc([N+](=O)[O-])cc2C#N)CC1
test value: 23.5
--
compound: NC(=O)Nc1cc(-c2ccc(CN3CCOCC3)cc2)sc1C(N)=O
test value: 46.5
--
compound: Nc1ccn(C2CO[C@H](CO)O2)c(=O)n1 (stereo not given in full)
test value: 105
--
compound: CCNC(=O)c1cc2c(-c3cc(OCCN4CCCC4)c(Cl)cc3Cl)nc(N)nc2s1
test value: 9.23
--
compound: O=C(Nc1nnc(-c2ccco2)o1)c1cc(-c2ccccc2)nc2ccccc12
test value: 94.4
--
compound: CON=C(C(=O)N[C@@H]1C(=O)N2C(C(=O)O)=C(CSC(=O)c3ccco3)CS[C@H]12)c1csc(N)n1
test value: 101
--
compound: Cc1nc(NC(=O)N2CCC[C@@H]2C(N)=O)sc1-c1ccnc(C(C)(C)C(F)(F)F)c1
test value: 36.1
--
compound: C=CC(=O)Nc1cccc(Nc2nc(NC3CCC(N(C)C)CC3)nc3c2ncn3C(C)C)c1 (stereo not given)
test value: 15.3
--
compound: Cc1cncc2cccc(S(=O)(=O)N3CCCN(C(=O)CN)C[C@@H]3C)c12
test value: 89.9
--
compound: CC(=O)N1CCN(c2ccc(OCc3nn(C)c(C)c3-c3cccc4c(CCCOc5cccc6ccccc56)c(C(=O)O)n(Cc5cccnc5)c34)cc2)CC1
test value: 9.41
--
compound: COc1ccc([C@@H]2CNC(=O)C2)cc1OC1CCCC1
test value: 96.4
--
compound: COC(=O)C=CC(=O)OC
test value: 97.5
--
compound: O=C1NC(=O)C(=Cc2ccc3nccc(-c4ccncc4)c3c2)S1
test value: 7.95
--
compound: COc1ccc(CCC(=O)c2c(O)cc(O[C@@H]3O[C@H](CO)[C@@H](O)[C@H](O)[C@@H]3O[C@@H]3O[C@@H](C)[C@H](O)[C@@H](O)[C@@H]3O)cc2O)cc1O
test value: 17.8
--
compound: CNC(=O)c1cccc(-c2ccc3c(N4CCOC[C@H]4C)nc(N4CCOC[C@H]4C)nc3n2)c1
test value: 17.5
--
compound: CCCCC(=O)O[C@]1(C(=O)CO)[C@@H](C)C[C@H]2[C@@H]3CCC4=CC(=O)C=C[C@]4(C)[C@@]3(F)[C@@H](O)C[C@@]21C
test value: 78.8
--
compound: O=C(C[C@@H]1CC=CCCC(=O)O[C@H](c2ccccc2)CNC1=O)NCc1ccc(Cl)cc1
test value: 96.1
--
compound: Cn1cnc2c(F)c(Nc3ccc(Br)cc3F)c(C(=O)NOCCO)cc21
test value: 88
--
compound: CN(C)c1ccc(C(=O)NCCCCCCC(=O)NO)cc1
test value: 7.09
--
compound: C[C@H](NCc1ccc(OCc2cccc(F)c2)cc1)C(N)=O
test value: 6.14
--
compound: COc1cccc2c1C(=O)c1c(O)c3c(c(O)c1C2=O)C[C@@](O)(C(=O)CO)C[C@@H]3O[C@H]1C[C@H](N)[C@@H](O)[C@H](C)O1
test value: 4.88
--
compound: CC(C)(C)[N+]([O-])=Cc1ccc(S(=O)(=O)O)cc1S(=O)(=O)O
test value: 92.1
--
compound: CCN(CC)CCCCNc1ncc2c(n1)N(C)C(=O)N(c1c(Cl)c(OC)cc(OC)c1Cl)C2
test value: 17.7
--
compound: c1cc(CN2CCCNCCNCCCNCC2)ccc1CN1CCCNCCNCCCNCC1
test value: 96.2
--
compound: CC(Cc1ccc(O)c(O)c1)(NN)C(=O)O (stereo not given)
test value: 15.4
--
compound: C[C@](Cc1c[nH]c2ccccc12)(NC(=O)OC1C2CC3CC(C2)CC1C3)C(=O)NC[C@H](NC(=O)CCC(=O)O)c1ccccc1 (stereo not given in full)
test value: 36.8
--
compound: CC(=O)O[C@@]12CO[C@H]1C[C@H](O)[C@@]1(C)C(=O)[C@H](O)C3=C(C)[C@@H](OC(=O)C(O)[C@@H](NC(=O)OC(C)(C)C)c4ccccc4)C[C@@](O)([C@@H](OC(=O)c4ccccc4)[C@@H]21)C3(C)C (stereo not given in full)
test value: 18.8
--
compound: C=C(C)[C@@H]1CC[C@]2(C)CC[C@]3(C)[C@H](CC[C@@H]4[C@@]5(C)CC[C@H](O)C(C)(C)[C@H]5CC[C@]43C)[C@@H]12
test value: 92
--
compound: Oc1ccc([C@@H]2Oc3ccc(O)cc3[C@@H]3CCC[C@@H]32)cc1
test value: 90.8
--
compound: CCC(C(=O)O)C1CCC(C)C(C(C)C(O)C(C)C(=O)C(CC)C2OC3(C=CC(O)[C@@]4(CC[C@](C)(C5CC[C@@](O)(CC)C(C)O5)O4)O3)C(C)CC2C)O1 (stereo not given in full)
test value: 6.02
--
compound: CC(Oc1ccc(O)cc1)(P(=O)(O)O)P(=O)(O)O
test value: 101
--
compound: COc1ccc(C=Cc2cc(OC)c(OC)c(OC)c2)cc1NC(=O)[C@H](N)CO
test value: 75.1
